Task for the reader: assign each of the following compounds its reported relative viability.
test system: ChaGo-K-1; assay: relative viability (nuclei count vs DMSO), 5 days (fraction); higher = more cells survive; conditions: first compound 1.265 µM
I'd appreciate a reply containing only the number, no unit.

So what's the measured relative viability for this one? Cc1sc2c(c1C)C(c1ccc(Cl)cc1)=N[C@@H](CC(=O)OC(C)(C)C)c1nnc(C)n1-2 [JQ1] + O=C(CCCCCCC(=O)Nc1ccccc1)NO [Vorinostat] (partner 1 µM)
0.505

So what's the measured relative viability for this one? Cc1sc2c(c1C)C(c1ccc(Cl)cc1)=N[C@@H](CC(=O)OC(C)(C)C)c1nnc(C)n1-2 [JQ1] + CC1(C)CCC(c2ccc(Cl)cc2)=C(CN2CCN(c3ccc(C(=O)NS(=O)(=O)c4ccc(N[C@H](CCN5CCOCC5)CSc5ccccc5)c(S(=O)(=O)C(F)(F)F)c4)cc3)CC2)C1 [Navitoclax] (partner 0.5 µM)
0.405

So what's the measured relative viability for this one? Cc1sc2c(c1C)C(c1ccc(Cl)cc1)=N[C@@H](CC(=O)OC(C)(C)C)c1nnc(C)n1-2 [JQ1] + Nc1nc2[nH]cc(CCc3ccc(C(=O)N[C@@H](CCC(=O)O)C(=O)O)cc3)c2c(=O)[nH]1 [Pemetrexed] (partner 0.2 µM)
0.252

So what's the measured relative viability for this one? Cc1sc2c(c1C)C(c1ccc(Cl)cc1)=N[C@@H](CC(=O)OC(C)(C)C)c1nnc(C)n1-2 [JQ1] + COc1cccc2cc(-c3nc([C@H]4CC[C@H](C(=O)O)CC4)n4ncnc(N)c34)[nH]c12 [OSI-027] (partner 0.5 µM)
0.345

So what's the measured relative viability for this one? Cc1sc2c(c1C)C(c1ccc(Cl)cc1)=N[C@@H](CC(=O)OC(C)(C)C)c1nnc(C)n1-2 [JQ1] + O=C(c1cc(Cc2n[nH]c(=O)c3ccccc23)ccc1F)N1CCN(C(=O)C2CC2)CC1 [Olaparib] (partner 8 µM)
0.239
